// reported PanDDA run, TFA/DMSO background map: 1-BDC per item
System: SARS-CoV-2 NSP3 macrodomain (Mac1), P43 crystal form (Severe acute respiratory syndrome coronavirus 2)
Assay type: binding
Applied Conditions: crystal soak 10 mM; TFA/DMSO background map
Reported Property: PanDDA run, TFA/DMSO background map: 1-BDC

Compound	Meas Value
O=C(O)C(F)(F)F.OCC(Nc1ncnc2[nH]ccc12)C(O)C1CCCCC1 (stereo not shown)	0.08
CC(C)CCC(CO)Nc1ncnc2[nH]ccc12.O=C(O)C(F)(F)F (stereo not shown)	0.09
O=C(O)C(F)(F)F.OC[C@@H](CCc1ccccc1)Nc1ncnc2[nH]ccc12	0.07
O=C(O)C(F)(F)F.OCC(Nc1ncnc2[nH]ccc12)C1CCCO1 (stereo not shown)	0.12

Cited source for all entries: paper doi:10.1101/2024.08.25.609621
